Values compiled from ChEMBL document CHEMBL1799975.

# ASSAY: Drug level in rat plasma at 0.2 mg/kg, iv after 15 mins by LC-MS-MS analysis
# Format: ADME, organism-based
# Parameters: dose 0.2 mg/kg, route intravenous
MEASURED_PROPERTY: concentration at […]

| SMILES_REPR | MEASURED_PROPERTY | REPORTED |
| --- | --- | --- |
| CCc1nn2ccc3c(c2c1CCNC(C)=O)CCO3 | concentration at […] | 83.2 ng/mL |

----------
# ASSAY: Volume of distribution at steady state in rat at 0.1 mg/kg, iv by LC-MS-MS analysis
# Format: ADME, organism-based
# Design: dose 0.1 mg/kg, route intravenous
# CONDITIONS: in vivo, read-out: Vdss
MEASURED_PROPERTY: Vd

| SMILES_REPR | REPORTED |
| --- | --- |
| CCc1nn2ccc3c(c2c1CCNC(C)=O)CCO3 | 0.664 L/kg |

----------
# ASSAY: Drug level in rat plasma at 0.2 mg/kg, iv after 30 mins by LC-MS-MS analysis
# Type: ADME, organism-based
# Design: dose 0.2 mg/kg, route intravenous
MEASURED_PROPERTY: concentration at 0.5 h (ng/mL)

| SMILES_REPR | REPORTED |
| --- | --- |
| CCc1nn2ccc3c(c2c1CCNC(C)=O)CCO3 | 55.9 |

----------
# ASSAY: AUC in rat at 0.1 mg/kg, po by LC-MS-MS analysis
# Format: ADME, organism-based
# Design: dose 0.1 mg/kg, route oral
# CONDITIONS: plasma

| SMILES_REPR | AUC |
| --- | --- |
| CCc1nn2ccc3c(c2c1CCNC(C)=O)CCO3 | 14.4 ng·h/mL |

----------
# ASSAY: Drug level in rat brain at 0.2 mg/kg, iv after 30 mins by LC-MS-MS analysis
# Assay type: ADME, organism-based
# Parameters: dose 0.2 mg/kg, route intravenous
# CONDITIONS: read-out: Drug uptake

| SMILES_REPR | concentration at 0.5 h (ng/g) |
| --- | --- |
| CCc1nn2ccc3c(c2c1CCNC(C)=O)CCO3 | 12.4 |

----------
# ASSAY: Mean residence time in rat at 0.1 mg/kg, po by LC-MS-MS analysis
# Format: ADME, organism-based
# Design: dose 0.1 mg/kg, route oral
# CONDITIONS: in vivo
MEASURED_PROPERTY: MRT

| SMILES_REPR | REPORTED |
| --- | --- |
| CCc1nn2ccc3c(c2c1CCNC(C)=O)CCO3 | 57 min |

----------
# ASSAY: Drug level in rat brain at 0.2 mg/kg, iv after 15 mins by LC-MS-MS analysis
# Format: ADME, organism-based
# Set-up: dose 0.2 mg/kg, route intravenous
# CONDITIONS: read-out: Drug uptake

| SMILES_REPR | concentration at […] / ng/g |
| --- | --- |
| CCc1nn2ccc3c(c2c1CCNC(C)=O)CCO3 | 23.7 |

----------
# ASSAY: Lipophilicity, log D of the compound at pH 7.4 by HPLC analysis
# Format: physicochemical
# CONDITIONS: buffer
Recorded logD for the following molecules

| SMILES_REPR | logD |
| --- | --- |
| CCC(=O)NCCc1c(CC)nn2ccc3c(c12)CCO3 | 1.71 |
| CCC(=O)NCCc1c(C2CC2)nn2ccc3c(c12)CCO3 | 1.89 |
| CC(=O)NCCc1c(-c2ccccc2)nn2ccc3c(c12)CCO3 | 2.04 |
| CC(=O)NCCc1c(C)nn2ccc3c(c12)CCO3 | 1.04 |
| CC(=O)NCCn1c(-c2ccccc2)nc2ccc3c(c21)CCO3 | 1.39 |
| CCC(=O)NCCc1c(C(F)(F)F)nn2ccc3c(c12)CCO3 | 1.94 |
| CCc1nn2ccc3c(c2c1CCNC(C)=O)CCO3 | 1.48 |
| COc1ccc2[nH]cc(CCNC(C)=O)c2c1 | 0.5 |
| CC(=O)NCCc1c(C2CC2)nn2ccc3c(c12)CCO3 | 1.61 |
| CC(=O)NCCC1=C(c2ccccc2)Cc2ccc3c(c21)CCO3 | 3.49 |
| CC(=O)NCCc1c(-c2ccccc2)nc2ccc3c(n12)CCO3 | 1.66 |
| CC(=O)NCCc1c(C(F)(F)F)nn2ccc3c(c12)CCO3 | 1.64 |
| CCC(=O)NCCc1c(C)nn2ccc3c(c12)CCO3 | 1.39 |
